# target-system: Human CYP8B1 (Homo sapiens)
# Construct: tissue Xenotech; host or cells: human liver microsomes
# Sequence (Q9UNU6 1-501): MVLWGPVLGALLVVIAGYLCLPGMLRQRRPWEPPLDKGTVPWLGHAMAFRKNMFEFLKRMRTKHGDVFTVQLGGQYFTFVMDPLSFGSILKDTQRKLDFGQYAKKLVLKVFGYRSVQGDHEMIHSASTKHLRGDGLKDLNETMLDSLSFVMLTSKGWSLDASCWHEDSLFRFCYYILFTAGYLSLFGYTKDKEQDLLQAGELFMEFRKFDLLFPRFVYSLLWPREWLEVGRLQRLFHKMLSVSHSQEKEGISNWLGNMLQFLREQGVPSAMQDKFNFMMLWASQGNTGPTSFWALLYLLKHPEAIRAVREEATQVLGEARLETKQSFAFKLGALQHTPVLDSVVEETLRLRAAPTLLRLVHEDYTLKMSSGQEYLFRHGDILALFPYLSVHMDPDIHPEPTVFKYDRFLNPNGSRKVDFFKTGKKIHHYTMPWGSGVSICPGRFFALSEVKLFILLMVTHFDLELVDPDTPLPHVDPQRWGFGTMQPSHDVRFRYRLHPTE
# assay-text: Human Cyp8B1 Liver Microsome Assay
# Type: biochemical
# condition-set: human liver microsomes; substrate 7α-hydroxy-4-cholesten-3-one, NADPH; 30 min pre-incubation, 45 min reaction; RapidFire MS readout
readout-name: IC50 (µM)

Sample answers from the record:
> print(dat)
                           smiles.structure  observed.value
1  C[C@@H]1CN(c2ccnc3cc(Cl)cnc23)CC[C@@H]1C(=O)N1CCn2c(nnc2C(F)(F)F)C1           0.018
2  C[C@@H]1CN(c2ccnc3cc(C(C)(F)F)ccc23)CC[C@@H]1C(=O)N1CCn2c(nnc2C(F)(F)F)C1          0.0011
3  C[C@@H]1CN(c2ccnc3c(F)c(Cl)ccc23)CC[C@@H]1C(=O)N1CCn2c(nnc2C(F)(F)F)C1           0.014

A = C[C@@H]1CN(c2c(Cl)cnc3cc(OC(F)(F)F)ccc23)CC[C@@H]1C(=O)N1CCn2c(nnc2C(F)(F)F)C1
B = C[C@@H]1CN(c2ccnc3cc(F)ccc23)CC[C@@H]1C(=O)N1CCn2c(nnc2C(F)(F)F)C1
C = C[C@@H]1CN(c2c(Cl)cnc3c2CCN(CC2CC2)C3)CC[C@@H]1C(=O)N1CCn2c(nnc2C(F)(F)F)C1
D = C[C@@H]1CN(c2ccnc3cc(-n4cncn4)ccc23)CC[C@@H]1C(=O)N1CCn2c(nnc2C(F)(F)F)C1
Task: I would appreciate it if you could sort these 4 molecules by IC50, starting from the smallest number. List each label, following the requested order.
Result: A, C, B, D

----------
# target-system: Human CYP8B1 (Homo sapiens, UniProt Q9UNU6)
# Construct: tissue Xenotech; host or cells: human liver microsomes
# assay-text: Human Cyp8B1 Liver Microsome Assay
# Assay type: biochemical
# condition-set: human liver microsomes; substrate 7α-hydroxy-4-cholesten-3-one, NADPH; 30 min pre-incubation, 45 min reaction; RapidFire MS readout
readout-name: IC50 (nM)

Sample answers from the record:
> print(dat)
                                   molecule                             target.system  readout.name  observed.value
1  C[C@@H]1CN(c2c(Cl)cnc3c(F)cccc23)CC[C@@H]1C(=O)N1CCn2c(nnc2C(F)(F)F)C1 [Example 6]  Human CYP8B1 (Homo sapiens, UniProt Q9UNU6)          IC50             0.9
2  C[C@@H]1CN(c2c(F)cnc3cc(C(C)(F)F)ccc23)CC[C@@H]1C(=O)N1CCn2c(nnc2C(F)(F)F)C1 [Example 47]  Human CYP8B1 (Homo sapiens, UniProt Q9UNU6)          IC50            0.57
3  COc1ccc2c(N3CC[C@H](C(=O)N4CCn5c(nnc5C(F)(F)F)C4)[C@H](C)C3)c(Cl)cnc2c1 [Example 3]  Human CYP8B1 (Homo sapiens, UniProt Q9UNU6)          IC50             0.2
4  Cc1cnc2cc(C(C)(F)F)ccc2c1N1CC[C@H](C(=O)N2CCn3c(nnc3C(F)(F)F)C2)[C@H](C)C1 [Example 52]  Human CYP8B1 (Homo sapiens, UniProt Q9UNU6)          IC50            0.31
5  COc1ccc2nccc(N3CC[C@H](C(=O)N4CCn5c(nnc5C(F)(F)F)C4)[C@H](C)C3)c2n1 [Example 26]  Human CYP8B1 (Homo sapiens, UniProt Q9UNU6)          IC50              18

a = Cc1coc(-c2ccc3c(N4CC[C@H](C(=O)N5CCn6c(nnc6C(F)(F)F)C5)[C@H](C)C4)ccnc3c2)n1 [Example 75]
b = C[C@@H]1CN(c2ccnc3cc(-c4ccccc4)ccc23)CC[C@@H]1C(=O)N1CCn2c(nnc2C(F)(F)F)C1 [Example 80]
c = C[C@@H]1CN(c2c(Cl)cnc3cc(F)ccc23)CC[C@@H]1C(=O)N1CCn2c(nnc2C(F)(F)F)C1 [Example 4]
d = CC(=O)c1ccc2c(N3CC[C@H](C(=O)N4CCn5c(nnc5C(F)(F)F)C4)[C@H](C)C3)c(Cl)cnc2c1 [Example 43]
Task: I would appreciate it if you could sort these 4 molecules by IC50, starting from the smallest number. List each label, following the requested order.
Result: d, b, c, a
(d: 0.28 nM, b: 0.4 nM, c: 0.6 nM, a: 1.4 nM)

----------
# target-system: Human CYP8B1 (Homo sapiens)
# Construct: tissue Xenotech; host or cells: human liver microsomes
# assay-text: Human Cyp8B1 Liver Microsome Assay
# Type: biochemical
# condition-set: human liver microsomes; substrate 7α-hydroxy-4-cholesten-3-one, NADPH; 30 min pre-incubation, 45 min reaction; RapidFire MS readout
pIC50: −log10 of the molar value.
readout-name: pIC50

> print(dat)
                           smiles.structure                target.system  readout.name  observed.value
1  C[C@@H]1CN(c2c(F)cnc3cc(C(F)F)ccc23)CC[C@@H]1C(=O)N1CCn2c(nnc2C(F)(F)F)C1  Human CYP8B1 (Homo sapiens)         pIC50            9.34
2  C[C@@H]1CN(c2ccnc3c2CCN(CC(F)(F)F)C3)CC[C@@H]1C(=O)N1CCn2c(nnc2C(F)(F)F)C1  Human CYP8B1 (Homo sapiens)         pIC50            6.92

a = C[C@@H]1CN(c2ccnc3cc(C(=O)NCC4CC4)ccc23)CC[C@@H]1C(=O)N1CCn2c(nnc2C(F)(F)F)C1
b = COc1cnc2c(N3CC[C@H](C(=O)N4CCn5c(nnc5C(F)(F)F)C4)[C@H](C)C3)ccnc2c1
Task: So which one has the bigger pIC50 here, a or b ? The response must carry the label of the picked entry.
Result: a

----------
# target-system: Human CYP8B1 (Homo sapiens, UniProt Q9UNU6)
# Construct: tissue Xenotech; host or cells: human liver microsomes
# assay-text: Human Cyp8B1 Liver Microsome Assay
# Format: biochemical
# condition-set: human liver microsomes; substrate 7α-hydroxy-4-cholesten-3-one, NADPH; 30 min pre-incubation, 45 min reaction; RapidFire MS readout
pIC50: −log10 of the molar value.
readout-name: pIC50

> print(dat)
                           smiles.structure  observed.value
1  COc1ccc2c(N3CC[C@H](C(=O)N4CCn5c(nnc5C(F)(F)F)C4)[C@H](C)C3)c(C3CC3)cnc2c1            9.17
2  C[C@@H]1CN(c2c(Cl)cnc3c2CCN(CC(F)(F)F)C3)CC[C@@H]1C(=O)N1CCn2c(nnc2C(F)(F)F)C1            9.10

A = C[C@@H]1CN(c2c(Cl)cnc3cc(S(C)(=O)=O)ccc23)CC[C@@H]1C(=O)N1CCn2c(nnc2C(F)(F)F)C1
B = Cc1cc(N2CC[C@H](C(=O)N3CCn4c(nnc4C(F)(F)F)C3)[C@H](C)C2)c2cc(F)ccc2n1
C = C[C@@H]1CN(c2ccnc3cc(-c4ccncc4)ccc23)CC[C@@H]1C(=O)N1CCn2c(nnc2C(F)(F)F)C1
D = Cc1cc(N2CC[C@H](C(=O)N3CCn4c(nnc4C(F)(F)F)C3)[C@H](C)C2)c2ccc(F)c(F)c2n1
E = C[C@@H]1CN(c2ccnc3cc(Cl)ccc23)CC[C@@H]1C(=O)N1CCn2c(nnc2C(F)(F)F)C1
Task: I would appreciate it if you could sort these 5 molecules by pIC50, starting from the smallest number. List each label, following the requested order.
Result: D, B, E, A, C

----------
# target-system: Human CYP8B1 (Homo sapiens)
# Construct: tissue Xenotech; host or cells: human liver microsomes
# assay-text: Human Cyp8B1 Liver Microsome Assay
# Assay type: biochemical
# condition-set: human liver microsomes; substrate 7α-hydroxy-4-cholesten-3-one, NADPH; 30 min pre-incubation, 45 min reaction; RapidFire MS readout
pIC50: −log10 of the molar value.
readout-name: pIC50

Sample answers from the record:
compound	readout-name	observed-value
C[C@@H]1CN(c2ccnc3c2CCN(C(=O)OC(C)(C)C)C3)CC[C@@H]1C(=O)N1CCn2c(nnc2C(F)(F)F)C1	pIC50	8.09
CCNC(=O)c1ccc2c(N3CC[C@H](C(=O)N4CCn5c(nnc5C(F)(F)F)C4)[C@H](C)C3)c(Cl)cnc2c1	pIC50	9.15
C[C@@H]1CN(c2c(F)cnc3cc(Cl)ccc23)CC[C@@H]1C(=O)N1CCn2c(nnc2C(F)(F)F)C1	pIC50	8.77
Cc1cc(N2CC[C@H](C(=O)N3CCn4c(nnc4C(F)(F)F)C3)[C@H](C)C2)c2cc(F)cc(F)c2n1	pIC50	6.84
C[C@@H]1CN(c2ccnc3cc(C(F)(F)F)ccc23)CC[C@@H]1C(=O)N1CCn2c(nnc2C(F)(F)F)C1	pIC50	8.28

a = C[C@@H]1CN(c2c(Cl)cnc3c2CCN(C(=O)C2CC2)C3)CC[C@@H]1C(=O)N1CCn2c(nnc2C(F)(F)F)C1
b = C[C@@H]1CN(c2c(C(F)F)cnc3c(F)c(Cl)ccc23)CC[C@@H]1C(=O)N1CCn2c(nnc2C(F)(F)F)C1
Task: Form: Entry with minimum pIC50 (choose one): a / b The response must carry the label of the picked entry.
Result: a
